pIC50: −log10 of the molar value.
This document collects pIC50 values reported for Terminally biotinylated beta-amyloid (Aβ42) (Homo sapiens, UniProt P05067).
experimental.readout: pIC50

chem.smiles	pIC50
CS(=O)(=O)N1CCC=C(c2cc(N3CC(CN4CCCC4)C3)c3nonc3c2)C1	5.00

(P) CC(=O)N1CCC=C(c2cc(N3CC(CN4CCCC4)C3)c3nonc3c2)C1
(Q) COc1ccc(-c2cc(N3CC(CN4CCCC4)C3)c3nonc3c2)cc1C
(R) COCCN1CCC=C(c2cc(N3CC(CN4CCCC4)C3)c3nonc3c2)C1
# ascending order, key=pIC50 Provide the labels, sequenced as the question asks. P, Q, R
(P: 4.52, Q: 5.06, R: 5.89)

====

# measured.target: Aβ40 (Homo sapiens)
# protocol.text: ThT Aβ aggregation assay (kinetic Thioflavin T fluorescence)
# Format: biochemical
# conditions: compound 10 μM; 20 μM Aβ; DMSO control at 80 hr = 0% inhibition; number in parenthesis = compound ID 1027 in that experiment; read-out: % inhib Thioflavin T Aβ 40 10 μM
experimental.readout: inhibition at 10 µM (%)

The examples below pair each entry with its known result.
compound	unit.descriptor	inhibition at 10 µM
COc1ccc(-c2cc(N3CC(CN4CCCC4)C3)c3nonc3c2)cc1C [compound 1488]	%	31
CC(C)(C)c1ccc(-c2cc(N3CC(CN4CCCC4)C3)c3nonc3c2)cc1 [compound 1487]	%	33
CS(=O)(=O)c1cccc(-c2cc(N3CC(CN4CCCC4)C3)c3nonc3c2)c1 [compound 1479]	%	24
CC(C)c1ccc(-c2cc(N3CC(CN4CCCC4)C3)c3nonc3c2)cc1 [compound 1489]	%	34

(I) CC(=O)c1cccc(-c2cc(N3CC(CN4CCCC4)C3)c3nonc3c2)c1 [compound 1480]
(II) c1csc(-c2cc(N3CC(CN4CCCC4)C3)c3nonc3c2)c1 [compound 1529]
Just curious, which one has the larger inhibition at 10 µM reading, I or II ? Bench note: the answer is the label of the chosen record. II
(II: 74%, I: 31%)

====

# measured.target: Aβ40 (Homo sapiens, UniProt P05067)
# Sequence (P05067 672-711, species assumed): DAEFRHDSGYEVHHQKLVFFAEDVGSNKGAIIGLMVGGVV
# protocol.text: ThT Aβ aggregation assay (kinetic Thioflavin T fluorescence)
# Assay type: biochemical
# conditions: compound 10 μM; 20 μM Aβ; DMSO control at 80 hr = 0% inhibition; number in parenthesis = compound ID 1027 in that experiment; read-out: % inhib Thioflavin T Aβ 40 10 μM
experimental.readout: inhibition at 10 µM (%)

Field: example entries. Status: answers known.
chem.smiles	measured.target	experimental.readout	data.value
CC(=O)Nc1ccc(-c2cc(N3CC(CN4CCCC4)C3)c3nonc3c2)cc1	Aβ40 (Homo sapiens, UniProt P05067)	inhibition at 10 µM	41
O=C(C1CN(c2cc(Br)cc3nonc23)C1)N1CCCC1	Aβ40 (Homo sapiens, UniProt P05067)	inhibition at 10 µM	65
CS(=O)(=O)N1CCC=C(c2cc(N3CC(CN4CCCC4)C3)c3nonc3c2)C1	Aβ40 (Homo sapiens, UniProt P05067)	inhibition at 10 µM	44
Cn1nccc1-c1cc(N2CC(CN3CCCC3)C2)c2nonc2c1	Aβ40 (Homo sapiens, UniProt P05067)	inhibition at 10 µM	61
FC(F)(F)c1cccc(-c2cc(N3CC(CN4CCCC4)C3)c3nonc3c2)c1	Aβ40 (Homo sapiens, UniProt P05067)	inhibition at 10 µM	56
c1ccc2oc(-c3cc(N4CC(CN5CCCC5)C4)c4nonc4c3)cc2c1	Aβ40 (Homo sapiens, UniProt P05067)	inhibition at 10 µM	26

(a) c1ccc(-c2cc(N3CC(CN4CCCC4)C3)c3nonc3c2)cc1
(b) FC(F)(F)c1ccccc1-c1cc(N2CC(CN3CCCC3)C2)c2nonc2c1
# compare inhibition at 10 µM for a vs b ; return the one with the smaller value # reply format: chosen label a
